Target: MgCA (Malassezia globosa)
Construct: gene MGL_1814
Sequence (A8Q1N3 1-241): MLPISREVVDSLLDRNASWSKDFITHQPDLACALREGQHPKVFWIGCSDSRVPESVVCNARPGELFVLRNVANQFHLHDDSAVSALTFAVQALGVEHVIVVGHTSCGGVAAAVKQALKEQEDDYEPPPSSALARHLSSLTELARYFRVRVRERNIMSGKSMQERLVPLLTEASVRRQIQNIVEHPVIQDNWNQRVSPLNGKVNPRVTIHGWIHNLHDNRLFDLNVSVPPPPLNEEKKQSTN
Test: stopped-flow CO2 hydrase assay
Type: biochemical
measured-attribute: pKi
Worth noting: pKi values are minus log10 of concentrations stated in mol/L.

query: Report measured pKi; entry is CCCCCCCc1ccc(C(=O)NC(=[Se])Nc2cccc(S(N)(=O)=O)c2)cc1 [8b]
result: 5.66

query: Report measured pKi; entry is NS(=O)(=O)c1cccc(NC(=[Se])NC(=O)c2ccccc2)c1 [8a]
result: 5.38

query: Report measured pKi; entry is NS(=O)(=O)c1ccc(O)c(NC(=[Se])NC(=O)c2ccc(I)cc2)c1 [11d]
result: 5.53

query: Report measured pKi; entry is O=C(NC(=[Se])Nc1ccc(S(=O)(=O)Nc2nccs2)cc1)c1ccc(F)cc1 [10e]
result: 5.05

query: Report measured pKi; entry is CCCCCCCc1ccc(C(=O)NC(=[Se])NCCc2ccc(S(N)(=O)=O)cc2)cc1 [9b]
result: 5.19

query: Report measured pKi; entry is O=C(NC(=[Se])Nc1ccc(S(=O)(=O)Nc2nccs2)cc1)c1ccccc1 [10a]
result: 4.28

query: Report measured pKi; entry is O=C(NC(=[Se])Nc1ccc(S(=O)(=O)Nc2nccs2)cc1)c1cc(Br)cc(OC(F)(F)F)c1 [10b]
result: 5.03

query: Report measured pKi; entry is NS(=O)(=O)c1cccc(NC(=[Se])NC(=O)c2ccc(I)cc2)c1 [8e]
result: 5.06

query: Report measured pKi; entry is CCCCCCCc1ccc(C(=O)NC(=[Se])Nc2ccc(S(N)(=O)=O)cc2)cc1 [7e]
result: 5.23

query: Report measured pKi; entry is NS(=O)(=O)c1ccc(NC(=[Se])NC(=O)c2ccc(Br)cc2F)cc1 [7h]
result: 6.12

query: Report measured pKi; entry is CCCCCCCc1ccc(C(=O)NC(=[Se])Nc2ccc(S(=O)(=O)Nc3nccs3)cc2)cc1 [10c]
result: 4.22

query: Report measured pKi; entry is NS(=O)(=O)c1ccc(CCNC(=[Se])Nc2cccc(C(F)(F)F)c2)cc1 [5c]
result: 6.15

query: Report measured pKi; entry is NS(=O)(=O)c1ccc(CCNC(=[Se])NC(=O)c2ccccc2)cc1 [9a]
result: 6.25

query: Report measured pKi; entry is NS(=O)(=O)c1ccc(CCNC(=[Se])Nc2ccccc2)cc1 [5a]
result: 6.18

query: Report measured pKi; entry is NS(=O)(=O)c1ccc(CCNC(=[Se])NC(=O)c2ccc(F)cc2)cc1 [9d]
result: 5.10

query: Report measured pKi; entry is NS(=O)(=O)c1ccc(NC(=[Se])NC(=O)c2ccccc2)cc1 [7a]
result: 5.41

query: Report measured pKi; entry is NS(=O)(=O)c1ccc(NC(=[Se])NC(=O)c2ccc(F)cc2)cc1 [7k]
result: 5.08

query: Report measured pKi; entry is NS(=O)(=O)c1ccc(NC(=[Se])NC(=O)c2ccc3c(c2)OCO3)cc1 [7b]
result: 5.31

query: Report measured pKi; entry is NS(=O)(=O)c1ccc(NC(=[Se])NC(=O)c2ccc(/N=N/c3ccccc3)cc2)cc1 [7j]
result: 5.54
